- Tested on: HSV-1
- Assay name: Inhibition of HSV infectivity on Vero cell monolayers (co-exposure, virus pre-exposure, cell pre-exposure, post-exposure)
- Assay type: cell-based
- Run parameters: antiviral activity against HSV-1 on Vero cells
Bridge positions count the residues as written; N and C are the ends. Ends that are not written are not given here.
Quantity kind: IC50 (µM)
Give bare numbers, in µM.

Which IC50 is reported with HSV-1 for this entry: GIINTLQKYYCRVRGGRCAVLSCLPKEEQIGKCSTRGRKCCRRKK (disulfide 11-40, 18-33, 23-41 (inferred)) [hBD3] ?
10
